Provide the recorded enrichment ratio for the entries that follow.
B1: PhoQ; a variant is named by its letters at X, in order, P23837 (parent)
chain: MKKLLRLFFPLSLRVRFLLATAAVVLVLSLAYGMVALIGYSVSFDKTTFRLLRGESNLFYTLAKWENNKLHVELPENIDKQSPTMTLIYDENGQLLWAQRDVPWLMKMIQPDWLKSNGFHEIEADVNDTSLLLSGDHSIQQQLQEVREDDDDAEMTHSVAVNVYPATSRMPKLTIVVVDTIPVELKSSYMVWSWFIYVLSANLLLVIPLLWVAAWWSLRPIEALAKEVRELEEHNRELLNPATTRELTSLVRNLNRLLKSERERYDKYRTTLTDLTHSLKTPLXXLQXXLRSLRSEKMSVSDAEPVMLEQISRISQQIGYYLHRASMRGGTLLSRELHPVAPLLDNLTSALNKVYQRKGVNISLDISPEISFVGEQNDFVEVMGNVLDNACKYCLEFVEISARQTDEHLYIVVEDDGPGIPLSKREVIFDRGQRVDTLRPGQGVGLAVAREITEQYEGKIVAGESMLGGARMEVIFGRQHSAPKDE

# Variants of: B1
# assayDetails: enrichment ratio after two sorts for PhoP signalling (ratio (wild type AVST 3.29)); higher = more functional
# studyConditions: with PhoP (E. coli)
Over roughly 140,000 sequences, “enrichment ratio after two sorts for PhoP signalling” has its median near 0; the highest 2% begin near 11. Many of the other results were omitted from the sample, so the highest values are more common in it than they were.
Answers are plain numbers.

// solved cases for enrichment ratio follow
I am curious: what enrichment ratio value has been reported for AHCG ?
15.3

State the recorded enrichment ratio for this entry: GIAS
14.2

Need enrichment ratio, item FSFL
1.26

enrichment ratio lookup needed for SCNL , thanks.
0.751

Quick one: enrichment ratio for GIGM ?
36.1

Dear colleague, I am looking for the recorded enrichment ratio of the following variant: GITA
7.39

Fill in enrichment ratio for each of the 5 variants listed.
1. SCGG
2. SCGM
3. SQIH
4. GITM
5. GIMM

1. 11.1
2. 9.65
3. 12.4
4. 10.3
5. 17.3

Need enrichment ratio for each of these variants.
1. GIAH
2. SDIH

1. 22.5
2. 2.15

Provenance of the data: a collection of fitness landscapes (doi:10.1126/science.1257360)
